Molecular target: T1, recombinant human LAG-3-his protein (Novoprotein) (human, UniProt P18627 23-450)
T1 construct: Bought; also called huLAG-3; not shown: His tag
T1 sequence (looked up): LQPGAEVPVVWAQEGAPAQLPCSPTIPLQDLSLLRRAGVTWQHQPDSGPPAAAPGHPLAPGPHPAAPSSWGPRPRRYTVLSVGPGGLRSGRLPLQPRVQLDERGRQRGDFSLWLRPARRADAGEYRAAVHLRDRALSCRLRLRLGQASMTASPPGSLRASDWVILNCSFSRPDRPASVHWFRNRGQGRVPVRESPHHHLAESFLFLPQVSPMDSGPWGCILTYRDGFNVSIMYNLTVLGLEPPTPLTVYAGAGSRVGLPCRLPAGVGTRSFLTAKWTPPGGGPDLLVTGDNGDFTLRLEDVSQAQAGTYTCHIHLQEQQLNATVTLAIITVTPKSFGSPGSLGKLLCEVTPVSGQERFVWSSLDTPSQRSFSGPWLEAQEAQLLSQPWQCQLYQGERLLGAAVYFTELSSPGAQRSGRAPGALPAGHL
Assay: BLI Octet, Ab on AHC sensor, huLAG-3-his; test group 2
Each entry gets 0 if its koff stays under 0.007 s⁻¹, and 1 if its koff is 0.007 s⁻¹ or above.

{"columns": ["binder", "cat"],
 "data": [
  ["HumAb747-49 (antibody, human IgG1, V domains shown, humanized mAb747; human IgG1/kappa constant domains) VH: EVQLVQSGAEVKKPGATVKLSCTASDFNIKDDYMHWVQQAPGKGLEWIGWIVPENGNTEYASKFQGRVTITADTSTDTAYLELSSLRSEDTAVYYCTVYGDYWGQGTTVTVSS VL: DIQMTQSPSSLSASVGDRVTITCRASQEISGYLSWLQQKPGKAIKRLIYAASTLDSGVPSRFSGSRSGTDFTLTISSLQPEDFATYYCLQYASYPLTFGQGTKLEIK", 1],
  ["HumAb747-52 (antibody, human IgG1, V domains shown, humanized mAb747; human IgG1/kappa constant domains) VH: EVQLVQSGAEVKKPGATVKLSCKASDFNIKDDYMHWVQQAPGKGLEWIGWIVPENGNTEYASKFQGRVTITADTSTDTAYLELSSLRSEDTAVYYCTVYGDYWGQGTTVTVSS VL: DIQMTQSPSSLSASVGDRVTITCRASQEISGYLSWLQQKPGGAIKRLIYAASTLDSGVPSRFSGSRSGSDYTLTISSLQPEDFADYYCLQYASYPLTFGQGTKLELK", 0],
  ["HumAb747-54 (antibody, human IgG1, V domains shown, humanized mAb747; human IgG1/kappa constant domains) VH: EVQLVQSGAEVKKPGATVKLSCTASDFNIKDDYMHWVKQAPGKGLEWIGWIVPENGNTEYASKFQGRATITADTSTNTAYLELSSLRSEDTAVYYCTVYGDYWGQGTTVTVSS VL: DIQMTQSPSSLSASVGDRVTITCRASQEISGYLSWLQQKPGGAIKRLIYAASTLDSGVPSRFSGSRSGSDYTLTISSLQPEDFADYYCLQYASYPLTFGQGTKLELK", 0],
  ["mAb747c (antibody, V domains shown, also called mAb717c) VH: EVQLQQSGAELVRPGASVKLSCTASDFNIKDDYMHWVKQRPEQGLDWIGWIVPENGNTEYASKFQGKATITADTSSNTAYLQLSSLTSEDTAVYYCTVYGDYWGQGTTLTVSS VL: DIQMTQSPSSLSASLGERVSLNCRASQEISGYLSWLQQKPDGTIKRLIYAASTLDSGVPKRFSGSRSGSDYSLTISSLESEDFAAYYCLQYASYPLTFGAGTKLELK", 0],
  ["HumAb747-53 (antibody, human IgG1, V domains shown, humanized mAb747; human IgG1/kappa constant domains) VH: EVQLVQSGAEVKKPGATVKLSCTASDFNIKDDYMHWVQQAPGKGLEWIGWIVPENGNTEYASKFQGRVTITADTSTDTAYLELSSLRSEDTAVYYCTVYGDYWGQGTTVTVSS VL: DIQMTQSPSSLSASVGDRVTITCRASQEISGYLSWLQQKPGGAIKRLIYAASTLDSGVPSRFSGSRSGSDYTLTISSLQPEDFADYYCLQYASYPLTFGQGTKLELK", 0],
  ["HumAb747-51 (antibody, human IgG1, V domains shown, humanized mAb747; human IgG1/kappa constant domains) VH: EVQLVQSGAEVKKPGATVKISCKVSDFNIKDDYMHWVQQAPGKGLEWIGWIVPENGNTEYASKFQGRVTITADTSTDTAYLELSSLRSEDTAVYYCTVYGDYWGQGTTVTVSS VL: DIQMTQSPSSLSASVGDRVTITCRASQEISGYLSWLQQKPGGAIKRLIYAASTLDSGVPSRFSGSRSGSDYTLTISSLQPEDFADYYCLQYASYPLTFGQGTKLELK", 1]
]}
